Assay: Comparative bioavailability of Trial 2 of Example 4 and ACTOS tablets 45 mg, open label randomized cross-over single dose study, fasting, 55 subjects
Type: in vivo
Conditions: human, plasma, oral, calculated from Table 6 results, single dose to humans, read-out: therapeutically equivalent range of plasma pioglitazone Cmax
Protocol: In determining bioequivalence, for example, between two products such as a commercially available product and a proposed product, pharmacokinetic studies are conducted whereby each of the preparations is administered in a crossover study to volunteer subjects. Serum plasma samples are obtained at regular intervals and assayed for parent drug (or occasionally metabolite) concentrations. […]
ASSAY METRIC: Cmax

Task item: Need Cmax, item CCc1ccc(CCOc2ccc(CC3SC(=O)NC3=O)cc2)nc1 (racemic) [Pioglitazone]
Reply: 1030 to 1610 ng/mL
